target: Protein farnesyltransferase (Rattus norvegicus); assay: Concentration required to displace 50% of a potent radiolabeled FTI from farnesyl transferase in cultured H-ras-transformed Rat1 cells
READOUT_KIND: IC50 (nM)
Numbers only, in nM.

Please review the following examples before continuing.
[[record]]
smiles_entry = "N#Cc1ccc(Cn2cncc2CN[C@H]2CCN(c3ccccc3)C2=O)cc1"
readout_kind = "IC50"
data_value = 27

[[record]]
smiles_entry = "N#Cc1ccc(Cn2cncc2CCN[C@H]2CCN(c3ccccc3)C2=O)cc1"
readout_kind = "IC50"
data_value = 150

[[record]]
smiles_entry = "Cc1ncccc1C(=O)N1CC[C@H](NCc2cncn2Cc2ccc(C#N)cc2)C1"
readout_kind = "IC50"
data_value = 610

[[record]]
smiles_entry = "N#Cc1ccc(Cn2cncc2CN[C@H]2CCN(C(=O)c3cccc(Cl)c3)C2)cc1"
readout_kind = "IC50"
data_value = 67

[[record]]
smiles_entry = "N#Cc1ccc(Cn2cncc2CN(CCCCc2ccccc2)[C@H]2CCN(Cc3ccccc3)C2=O)cc1"
readout_kind = "IC50"
data_value = 310

[[record]]
smiles_entry = "CCCN(Cc1cncn1Cc1ccc(C#N)cc1)[C@H]1CCN(Cc2ccccc2)C1=O"
readout_kind = "IC50"
data_value = 36

[[record]]
smiles_entry = "N#Cc1ccc(Cn2cncc2CN[C@H]2CCN(c3cccc(Cl)c3)C2=O)cc1"
readout_kind = "IC50"
data_value = 30

[[record]]
smiles_entry = "N#Cc1ccc(Cn2cncc2CN(CCc2ccccc2)[C@H]2CCN(Cc3ccccc3)C2=O)cc1"
readout_kind = "IC50"
data_value = 460

[[record]]
smiles_entry = "N#Cc1ccc(Cn2cncc2CN[C@H]2CCN(C(=O)c3cncc(Br)c3)C2)cc1"
readout_kind = "IC50"
data_value = 49

[[record]]
smiles_entry = "N#Cc1ccc(Cn2cncc2CN[C@H]2CCN(Cc3ccc(Cl)cc3)C2=O)cc1"
readout_kind = "IC50"
data_value = 53


Return reported IC50 values for all items listed beneath this line.
1. CC(C)(C)OC(=O)NCCCN(Cc1cncn1Cc1ccc(C#N)cc1)[C@H]1CCN(Cc2cccc(Cl)c2)C1=O
2. N#Cc1ccc(Cn2cncc2CN[C@H]2CCN(c3ccccc3Cl)C2=O)cc1

[1.1, 14]

* * *

Provide the reported log10(IC50) of each item.
biological target: Geranylgeranyl transferase type-1 subunit beta (Homo sapiens, UniProt P53609); assay: Inhibitory concentration of geranylgeranyl-protein transferase type I
Sequence (P53609 whole entry): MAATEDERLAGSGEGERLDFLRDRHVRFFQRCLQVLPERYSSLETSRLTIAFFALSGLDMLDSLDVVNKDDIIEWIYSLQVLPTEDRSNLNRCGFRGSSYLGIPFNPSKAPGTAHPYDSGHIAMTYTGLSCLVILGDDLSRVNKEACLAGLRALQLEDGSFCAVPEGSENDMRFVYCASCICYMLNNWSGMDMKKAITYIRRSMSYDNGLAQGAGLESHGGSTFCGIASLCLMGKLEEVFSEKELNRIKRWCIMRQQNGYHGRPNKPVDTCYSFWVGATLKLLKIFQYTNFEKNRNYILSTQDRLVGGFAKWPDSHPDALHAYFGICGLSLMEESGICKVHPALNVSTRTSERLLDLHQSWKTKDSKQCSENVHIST
Give log10 of IC50, with IC50 taken in µM.

Below are worked cases with known answers.
[[record]]
smiles_entry = "N#Cc1ccc(Cn2cncc2CN[C@H]2CCN(Cc3ccccc3Cl)C2=O)cc1"
measured_target = "Geranylgeranyl transferase type-1 subunit beta (Homo sapiens, UniProt P53609)"
data_value = 1.04

[[record]]
smiles_entry = "N#Cc1ccc(Cn2cncc2CN[C@H]2CCN(Cc3ccc(Cl)cc3)C2=O)cc1"
measured_target = "Geranylgeranyl transferase type-1 subunit beta (Homo sapiens, UniProt P53609)"
data_value = 1.18

[[record]]
smiles_entry = "N#Cc1ccc(Cn2cncc2CN[C@H]2CCN(Cc3cccc(Cl)c3)C2=O)cc1"
measured_target = "Geranylgeranyl transferase type-1 subunit beta (Homo sapiens, UniProt P53609)"
data_value = 0.53


I need log10(IC50) for every entry listed below, if you could help.
1. N#Cc1ccc(Cn2cncc2CN[C@H]2CCN(C(=O)c3ccccc3Cl)C2)cc1
2. N#Cc1ccc(Cn2cncc2CN[C@H]2CCN(c3ccc(Cl)cc3)C2=O)cc1
3. N#Cc1ccc(Cn2cncc2CN[C@H]2CCN(CCc3ccccc3)C2=O)cc1

1.28
1.04
1.68

Please state, for each entry, its recorded log10(IC50).
1. N#Cc1ccc(Cn2cncc2CN[C@@H]2CCN(Cc3ccccc3)C2=O)cc1
2. N#Cc1ccc(Cn2cncc2CCN[C@@H]2CCN(CCc3ccccc3)C2=O)cc1
3. CSc1ncccc1C(=O)N1CC[C@H](NCc2cncn2Cc2ccc(C#N)cc2)C1

1. 1.66
2. 0.18
3. 1.45

Lab note: each molecule below needs its log10(IC50) filled in.
1. N#Cc1ccc(Cn2cncc2CN[C@H]2CCN(C(=O)c3ccccc3)C2)cc1
2. N#Cc1ccc(Cn2cncc2CCN[C@H]2CCN(Cc3ccccc3)C2=O)cc1
3. N#Cc1ccc(Cn2cncc2CN[C@H]2CCN(Cc3ccccc3)C2=O)cc1
4. N#Cc1ccc(Cn2cncc2CN[C@H]2CCN(c3ccccc3Cl)C2=O)cc1

1.38
0.87
1.60
1.62

Every entry's value here was drawn from ChEMBL document CHEMBL1134579.
